What IC50 was measured for each of the following?
# Experimental system: Serine/threonine-protein kinase B-raf (Homo sapiens, UniProt P15056, V600E)
# Sequence (P15056 2-766 V600E limits assumed): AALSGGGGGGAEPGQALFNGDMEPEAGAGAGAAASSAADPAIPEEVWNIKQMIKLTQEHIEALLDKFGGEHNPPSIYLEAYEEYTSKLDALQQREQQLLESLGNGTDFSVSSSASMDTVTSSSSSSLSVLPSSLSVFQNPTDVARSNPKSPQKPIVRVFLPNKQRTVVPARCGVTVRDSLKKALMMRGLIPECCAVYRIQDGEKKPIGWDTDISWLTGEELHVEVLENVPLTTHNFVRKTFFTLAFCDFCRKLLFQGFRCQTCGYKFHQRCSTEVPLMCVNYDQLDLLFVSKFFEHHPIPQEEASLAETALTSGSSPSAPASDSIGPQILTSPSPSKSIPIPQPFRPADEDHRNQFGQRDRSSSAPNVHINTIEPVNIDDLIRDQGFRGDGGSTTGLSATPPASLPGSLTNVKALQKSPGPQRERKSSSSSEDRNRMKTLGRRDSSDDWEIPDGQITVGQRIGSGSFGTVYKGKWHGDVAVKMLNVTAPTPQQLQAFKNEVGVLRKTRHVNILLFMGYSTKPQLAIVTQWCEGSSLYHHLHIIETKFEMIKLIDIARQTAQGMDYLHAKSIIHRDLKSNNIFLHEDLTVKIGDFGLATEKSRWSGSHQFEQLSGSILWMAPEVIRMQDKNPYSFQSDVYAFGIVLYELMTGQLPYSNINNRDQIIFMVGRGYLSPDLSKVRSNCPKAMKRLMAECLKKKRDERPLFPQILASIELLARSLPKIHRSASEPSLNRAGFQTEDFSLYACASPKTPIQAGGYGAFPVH
# Measurement description: Inhibition of His6-tagged full length BRAF V600E mutant (2 to 766 residues) (unknown origin) expressed in Baculovirus expression system by BRAMA method
# answer = value followed by unit

// returns reported IC50 for input CNS(=O)(=O)c1cccc(Nc2ncnc3[nH]c4ccccc4c23)c1 40 nM

// returns reported IC50 for input CNS(=O)(=O)c1cccc(Nc2ncnc3[nH]cc(-c4cccc(Cl)c4)c23)c1 1 nM

// returns reported IC50 for input CNS(=O)(=O)c1cccc(Nc2ncnc3[nH]c(-c4ccccc4C)cc23)c1 6 nM

// returns reported IC50 for input CNS(=O)(=O)c1cccc(Nc2ncnc3[nH]cc(-c4ccc(C(=O)O)cc4)c23)c1 16 nM

// returns reported IC50 for input CNS(=O)(=O)c1cccc(Nc2ncnc3[nH]c(Br)cc23)c1 16 nM
